The entries below are paired with their reported IC50 at 72 h.
# Measurement Protocol: MTT cytotoxicity assay, normal liver HL7702 cells
# Assay type: cell-based, human
# Study Conditions: human, HL7702 normal liver cells

>  <Compound>
O=c1[nH]c2ccccc2nc1/C=C/c1ccc2ccccc2c1 [A13]

>  <IC50 at 72 h>
> 100 µM

$$$$

Please give the measured IC50 at 72 h for this compound: O=c1[nH]c2ccccc2nc1/C=C/c1ccccc1F [A6]
> 100 µM

Please give the measured IC50 at 72 h for this compound: O=c1c(/C=C/c2ccccn2)nc2ccccc2n1Cc1ccccc1 [C5]
35.8 µM

Please give the measured IC50 at 72 h for this compound: O=c1[nH]c2ccccc2nc1/C=C/c1ccccc1[N+](=O)[O-] [A10]
68.2 µM

Please give the measured IC50 at 72 h for this compound: O=c1[nH]c2ccccc2nc1/C=C/c1ccccn1 [A5]
> 100 µM

---

Here's a batch of compounds along with measured IC50 for FGFR2 (Homo sapiens, UniProt P21802).

Please give the measured IC50 for this compound: Cn1c(=O)c(/C=C/c2ccccn2)nc2ccccc21
> 100 µM

Please give the measured IC50 for this compound: Cn1c(=O)c(/C=C/c2ccccc2Cl)nc2ccccc21
> 100 µM

Please give the measured IC50 for this compound: O=c1[nH]c2ccccc2nc1/C=C/c1ccccn1
> 100 µM

Please give the measured IC50 for this compound: O=c1[nH]c2ccccc2nc1/C=C/c1ccccc1
> 100 µM

Please give the measured IC50 for this compound: O=c1[nH]c2ccccc2nc1/C=C/c1ccccc1Cl
> 100 µM

Please give the measured IC50 for this compound: O=c1c(/C=C/c2ccccc2Cl)nc2ccccc2n1Cc1ccccc1
> 100 µM

---

# Tested Target: PDGFR-β (Homo sapiens, UniProt P09619)
# Sequence (P09619 33-1106, species assumed): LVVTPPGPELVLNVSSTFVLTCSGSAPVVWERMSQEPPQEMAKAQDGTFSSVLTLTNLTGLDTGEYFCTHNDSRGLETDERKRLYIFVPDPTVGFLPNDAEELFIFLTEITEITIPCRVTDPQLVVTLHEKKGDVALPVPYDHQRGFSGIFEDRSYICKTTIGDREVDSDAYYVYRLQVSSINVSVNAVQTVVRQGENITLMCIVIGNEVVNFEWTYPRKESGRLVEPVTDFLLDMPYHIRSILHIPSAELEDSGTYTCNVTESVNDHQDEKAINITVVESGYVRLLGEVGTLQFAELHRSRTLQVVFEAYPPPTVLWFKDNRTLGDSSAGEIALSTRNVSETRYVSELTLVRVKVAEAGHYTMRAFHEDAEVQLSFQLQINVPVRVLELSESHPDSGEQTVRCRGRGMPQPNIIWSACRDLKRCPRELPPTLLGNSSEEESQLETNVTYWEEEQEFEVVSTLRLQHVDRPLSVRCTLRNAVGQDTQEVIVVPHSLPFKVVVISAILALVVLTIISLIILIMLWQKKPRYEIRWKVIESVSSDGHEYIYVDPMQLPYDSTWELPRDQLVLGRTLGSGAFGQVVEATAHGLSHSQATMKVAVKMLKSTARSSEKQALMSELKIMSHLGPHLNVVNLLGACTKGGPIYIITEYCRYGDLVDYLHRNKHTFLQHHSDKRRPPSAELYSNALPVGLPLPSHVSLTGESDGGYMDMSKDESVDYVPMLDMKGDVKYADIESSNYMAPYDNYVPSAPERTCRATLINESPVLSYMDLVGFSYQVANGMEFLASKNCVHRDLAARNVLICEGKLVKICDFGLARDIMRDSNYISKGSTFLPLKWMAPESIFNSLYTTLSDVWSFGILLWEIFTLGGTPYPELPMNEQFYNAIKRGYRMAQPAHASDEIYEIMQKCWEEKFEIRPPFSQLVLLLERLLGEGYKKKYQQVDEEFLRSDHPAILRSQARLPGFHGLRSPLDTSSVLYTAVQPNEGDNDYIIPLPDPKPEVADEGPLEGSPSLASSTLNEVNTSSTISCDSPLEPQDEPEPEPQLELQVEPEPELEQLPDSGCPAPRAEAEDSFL
# Measurement Protocol: LANCE Ultra TR-FRET kinase selectivity assay, PDGFR-β
# Assay type: biochemical
The entries below are paired with their reported IC50.

Example entries and their recorded answers appear below.
>  <Structure As Smiles>
O=c1c(/C=C/c2ccccc2Cl)nc2ccccc2n1Cc1ccccc1

>  <Tested Target>
PDGFR-β (Homo sapiens, UniProt P09619)

>  <IC50>
> 100 µM

$$$$
>  <Structure As Smiles>
Cn1c(=O)c(/C=C/c2ccccn2)nc2ccccc21

>  <Tested Target>
PDGFR-β (Homo sapiens, UniProt P09619)

>  <IC50>
89.5 µM

$$$$
>  <Structure As Smiles>
O=c1[nH]c2ccccc2nc1/C=C/c1ccccc1Cl

>  <Tested Target>
PDGFR-β (Homo sapiens, UniProt P09619)

>  <IC50>
55.4 µM

$$$$

Please give the measured IC50 for this molecule: O=c1[nH]c2ccccc2nc1/C=C/c1ccccn1
> 100 µM

Please give the measured IC50 for this molecule: Cn1c(=O)c(/C=C/c2ccccc2Cl)nc2ccccc21
> 100 µM

Please give the measured IC50 for this molecule: O=c1[nH]c2ccccc2nc1/C=C/c1ccccc1
> 100 µM

---

# Tested Target: FGFR1 kinase (Homo sapiens, UniProt P11362)
# Sequence (P11362 478-767 limits assumed): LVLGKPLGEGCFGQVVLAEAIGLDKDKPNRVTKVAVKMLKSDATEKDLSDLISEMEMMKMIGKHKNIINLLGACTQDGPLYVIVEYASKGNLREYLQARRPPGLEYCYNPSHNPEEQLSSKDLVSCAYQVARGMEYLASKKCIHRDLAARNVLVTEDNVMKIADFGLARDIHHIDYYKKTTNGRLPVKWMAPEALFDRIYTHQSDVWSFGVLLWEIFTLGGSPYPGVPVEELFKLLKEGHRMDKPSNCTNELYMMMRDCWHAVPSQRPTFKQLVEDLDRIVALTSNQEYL
Assay Endpoint: pIC50
Just the number, please; pIC50 means minus log10 of the concentration in mol/L.

Example entries and their recorded answers appear below.
>  <Molecule>
Cn1c(=O)c(/C=C/c2ccccc2Cl)nc2ccccc21 [B2]

>  <pIC50>
4.58

$$$$
>  <Molecule>
O=c1[nH]c2ccccc2nc1/C=C/c1ccccc1Cl [A2]

>  <pIC50>
4.67

$$$$

Proceeding to the next molecule to report its pIC50.
Please give the measured pIC50 for this molecule: O=c1[nH]c2ccccc2nc1/C=C/c1ccccc1 [A1]
4.63

---

# Tested Target: FGFR3 (Homo sapiens, UniProt P22607)
# Sequence (P22607 23-806, species assumed): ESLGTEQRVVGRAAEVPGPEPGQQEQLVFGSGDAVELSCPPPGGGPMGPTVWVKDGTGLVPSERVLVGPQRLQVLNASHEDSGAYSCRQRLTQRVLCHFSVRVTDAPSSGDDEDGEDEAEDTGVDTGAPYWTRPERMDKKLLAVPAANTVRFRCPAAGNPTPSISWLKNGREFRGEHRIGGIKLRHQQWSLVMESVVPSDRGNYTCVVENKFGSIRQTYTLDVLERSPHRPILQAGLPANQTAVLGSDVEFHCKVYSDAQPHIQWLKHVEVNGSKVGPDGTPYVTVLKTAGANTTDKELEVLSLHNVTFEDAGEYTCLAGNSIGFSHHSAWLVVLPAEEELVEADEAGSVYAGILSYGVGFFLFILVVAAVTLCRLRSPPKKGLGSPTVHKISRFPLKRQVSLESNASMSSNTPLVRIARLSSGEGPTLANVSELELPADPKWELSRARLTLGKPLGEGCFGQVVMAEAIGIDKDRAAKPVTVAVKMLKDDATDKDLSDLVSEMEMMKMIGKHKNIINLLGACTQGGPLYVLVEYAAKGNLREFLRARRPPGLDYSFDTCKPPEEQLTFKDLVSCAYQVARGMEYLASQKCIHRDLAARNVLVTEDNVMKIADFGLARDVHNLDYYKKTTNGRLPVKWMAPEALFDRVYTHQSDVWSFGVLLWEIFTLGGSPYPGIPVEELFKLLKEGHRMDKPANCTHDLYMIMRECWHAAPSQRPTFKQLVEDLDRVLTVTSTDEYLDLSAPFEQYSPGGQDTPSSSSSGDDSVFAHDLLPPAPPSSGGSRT
Assay Endpoint: IC50 (µM)
The answer is to be given in µM; state only the numeric part.

Provide the documented IC50 with FGFR3 (Homo sapiens, UniProt P22607) as the system for O=c1[nH]c2ccccc2nc1/C=C/c1ccccc1Cl [A2]
75.1

Provide the documented IC50 with FGFR3 (Homo sapiens, UniProt P22607) as the system for O=c1[nH]c2ccccc2nc1/C=C/c1ccccc1 [A1]
89.6

---

The entries below are paired with their reported IC50 at 72 h.
# Measurement Protocol: MTT cytotoxicity assay, normal liver HL7702 cells
# Assay type: cell-based, human
# Study Conditions: human, HL7702 normal liver cells

Example entries and their recorded answers appear below.
>  <Compound>
Oc1nc2ccccc2nc1/C=C/c1ccc(F)cc1 [A4]

>  <Measured>
67.9 µM

$$$$
>  <Compound>
Fc1ccccc1/C=C/c1nc2ccccc2nc1Cl [D1]

>  <Measured>
40.2 µM

$$$$
>  <Compound>
Cn1c(=O)c(/C=C/c2ccc(F)cc2)nc2ccccc21 [B4]

>  <Measured>
> 100 µM

$$$$
>  <Compound>
O=c1[nH]c2ccccc2nc1/C=C/c1ccc(C(F)(F)F)cc1 [A11]

>  <Measured>
> 100 µM

$$$$
>  <Compound>
Cn1c(=O)c(/C=C/c2ccccc2)nc2ccccc21 [B1]

>  <Measured>
> 100 µM

$$$$

Please give the measured IC50 at 72 h for this compound: CN1CCN(c2nc3ccccc3nc2/C=C/c2ccccc2F)CC1 [D3]
> 100 µM

Please give the measured IC50 at 72 h for this compound: O=c1[nH]c2ccccc2nc1/C=C/c1ccccc1 [A1]
> 100 µM

Please give the measured IC50 at 72 h for this compound: O=c1[nH]c2ccccc2nc1/C=C/c1ccccc1Cl [A2]
41.5 µM

Please give the measured IC50 at 72 h for this compound: COc1cccc(/C=C/c2nc3ccccc3[nH]c2=O)c1OC [A9]
> 100 µM

Please give the measured IC50 at 72 h for this compound: Cn1c(=O)c(/C=C/c2ccccc2Cl)nc2ccccc21 [B2]
> 100 µM

---

# Tested Target: UniProt P22607
The entries below are paired with their reported IC50.

>  <Structure As Smiles>
Cn1c(=O)c(/C=C/c2ccccn2)nc2ccccc21

>  <IC50>
> 100 µM

$$$$
>  <Structure As Smiles>
O=c1[nH]c2ccccc2nc1/C=C/c1ccccn1

>  <IC50>
> 100 µM

$$$$

Proceeding to the next molecule to report its IC50.
Please give the measured IC50 for this molecule: Cn1c(=O)c(/C=C/c2ccccc2Cl)nc2ccccc21
> 100 µM

---

# Measurement Protocol: MTT cytotoxicity assay, normal liver HL7702 cells
# Type: cell-based, human
# Study Conditions: human, HL7702 normal liver cells
Assay Endpoint: IC50 at 72 h

Example entries and their recorded answers appear below.
>  <Molecule>
O=c1c(/C=C/c2ccccc2Br)nc2ccccc2n1Cc1ccccc1

>  <Measured>
> 100 µM

$$$$
>  <Molecule>
O=c1c(/C=C/c2ccccc2Cl)nc2ccccc2n1Cc1ccccc1

>  <Measured>
> 100 µM

$$$$
>  <Molecule>
O=c1[nH]c2ccccc2nc1/C=C/c1ccco1

>  <Measured>
> 100 µM

$$$$
>  <Molecule>
O=c1[nH]c2ccccc2nc1/C=C/c1cccs1

>  <Measured>
83.2 µM

$$$$
>  <Molecule>
Cn1c(=O)c(/C=C/c2ccccc2Br)nc2ccccc21

>  <Measured>
49 µM

$$$$

Please give the measured IC50 at 72 h for this molecule: CN1CCN(c2ccc3nc(-c4c(N)c5c(F)cccc5[nH]c4=O)[nH]c3c2)CC1 [TKI258, reference compound]
32.8 µM

Please give the measured IC50 at 72 h for this molecule: O=c1c(/C=C/c2ccccc2)nc2ccccc2n1Cc1ccccc1
> 100 µM

Please give the measured IC50 at 72 h for this molecule: O=c1c(/C=C/c2ccccc2F)nc2ccccc2n1Cc1ccccc1
> 100 µM
